# measuredTarget: T1, human FGFR3b expressed with a C-terminal murine Fc tag (hFGFR3b.mFc) (human)
# T1 construct: called dimeric; also called REGN3153; dimeric human FGFR3b
# T1 chain: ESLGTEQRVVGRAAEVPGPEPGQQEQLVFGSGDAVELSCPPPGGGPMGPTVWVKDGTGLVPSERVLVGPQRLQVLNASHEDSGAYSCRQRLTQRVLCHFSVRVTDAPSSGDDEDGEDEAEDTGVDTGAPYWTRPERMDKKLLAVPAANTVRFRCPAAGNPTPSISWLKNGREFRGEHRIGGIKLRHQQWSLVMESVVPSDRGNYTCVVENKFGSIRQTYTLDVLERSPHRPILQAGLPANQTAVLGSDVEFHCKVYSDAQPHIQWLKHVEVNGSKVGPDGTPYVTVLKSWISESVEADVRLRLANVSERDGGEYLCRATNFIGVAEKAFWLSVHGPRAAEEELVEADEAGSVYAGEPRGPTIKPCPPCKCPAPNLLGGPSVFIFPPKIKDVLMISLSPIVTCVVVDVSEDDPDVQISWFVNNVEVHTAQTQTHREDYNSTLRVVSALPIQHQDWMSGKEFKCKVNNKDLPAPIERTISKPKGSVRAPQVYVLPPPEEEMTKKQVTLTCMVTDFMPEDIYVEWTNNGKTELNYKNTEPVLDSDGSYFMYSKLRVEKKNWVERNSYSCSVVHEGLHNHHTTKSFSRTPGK
# experimentalDetails: SPR Biacore, mAb captured on anti-hFc, 25C
measurementName: t½

Past entries and their recorded results:
1. H4H30045P (antibody, human IgG4 S228P, kappa, V domains shown, HCVR 179, LCVR 187) VH: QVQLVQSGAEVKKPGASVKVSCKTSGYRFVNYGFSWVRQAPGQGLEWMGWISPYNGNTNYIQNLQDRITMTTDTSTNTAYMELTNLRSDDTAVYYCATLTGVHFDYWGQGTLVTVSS VL: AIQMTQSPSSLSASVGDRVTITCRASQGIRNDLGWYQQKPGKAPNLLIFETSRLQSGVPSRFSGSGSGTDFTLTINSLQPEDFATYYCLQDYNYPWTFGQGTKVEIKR :: 1.2 h
2. H4H30061P (antibody, human IgG4 S228P, kappa, V domains shown) VH: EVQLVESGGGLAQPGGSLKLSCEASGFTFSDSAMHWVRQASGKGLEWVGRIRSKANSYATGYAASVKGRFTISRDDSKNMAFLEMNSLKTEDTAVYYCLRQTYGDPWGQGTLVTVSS VL: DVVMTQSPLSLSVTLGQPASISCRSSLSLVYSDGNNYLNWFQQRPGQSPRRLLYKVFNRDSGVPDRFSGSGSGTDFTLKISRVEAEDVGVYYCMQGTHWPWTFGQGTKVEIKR :: ≥ 19.2 h

Let's switch to this binder now.
t½ for H4H30063P (antibody, human IgG4 S228P, kappa, V domains shown, HCVR 2, LCVR 10; also called REGN15684) VH: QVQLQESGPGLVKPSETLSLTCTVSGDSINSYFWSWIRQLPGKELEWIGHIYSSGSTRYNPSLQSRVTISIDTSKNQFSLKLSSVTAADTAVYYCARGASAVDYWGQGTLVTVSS VL: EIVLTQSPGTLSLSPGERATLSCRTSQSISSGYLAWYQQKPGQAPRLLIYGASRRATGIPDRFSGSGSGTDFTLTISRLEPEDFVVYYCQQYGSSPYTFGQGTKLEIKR is ≥ 19.2 h
